ASSAY REMARKS: Inhibition of PERV reverse transcriptase from Kagoshima pig KK5 cells
Parameters: species or system Porcine endogenous retrovirus
pIC50: −log10 of the molar value.
ASSAY READOUT: pIC50

1 = Cc1cn([C@H]2C=C[C@@H](COP(=O)(O)OP(=O)(O)OP(=O)(O)O)O2)c(=O)[nH]c1=O [STAVUDINE TRIPHOSPHATE]
2 = Cc1cn([C@H]2C[C@H](N=[N+]=[N-])[C@@H](COP(=O)(O)OP(=O)(O)OP(=O)(O)O)O2)c(=O)[nH]c1=O [ZIDOVUDINE TRIPHOSPHATE]
Q: Task for the reader: decide whether 1 or 2 has the larger pIC50. Please indicate the selected item by its label.
Result: 2

The origin of these recorded values is ChEMBL document CHEMBL1156415.
